Target: CDK2/Cyclin A2 (Homo sapiens, UniProt P20248)
Test: In vitro kinase assay, 32P filter capture with GST-Rb substrate
Where a SMILES comes first, the peptide text is derived from it. [ ]: non-standard residue; d: D form. Ala(cPent) = N[C@@H](CC1CCCC1)C(=O)O; 3Pal = N[C@@H](Cc1cccnc1)C(=O)O; 2Thi = N[C@@H](Cc1cccs1)C(=O)O; 3Thi = N[C@@H](Cc1ccsc1)C(=O)O; Cba = N[C@@H](CC1CCC1)C(=O)O
result-type: IC50 (µM)
Lab book: enter the figure in µM, no units written.

Below: 3 molecules and their reported IC50.
molecule	result-type	meas-value
CC[C@H](C)[C@H](NC(=O)[C@H](CC(C)C)NC(=O)[C@H](CCCNC(=N)N)NC(=O)[C@H](CCCNC(=N)N)NC(=O)[C@H](CCCCN)NC(=O)[C@H](C)NC(=O)[C@@H](N)Cc1c[nH]cn1)C(=O)N[C@@H](CC1CCCC1)C(N)=O [HAKRRLIX5] (H-HAKRRLI[Ala(cPent)]-NH2)	IC50	20
CC[C@H](C)[C@H](NC(=O)[C@H](CC(C)C)NC(=O)[C@H](CCCNC(=N)N)NC(=O)[C@H](CCCNC(=N)N)NC(=O)[C@H](CCCCN)NC(=O)[C@H](C)NC(=O)[C@@H](N)Cc1c[nH]cn1)C(=O)N[C@@H](Cc1cccs1)C(N)=O [HAKRRLIX2] (H-HAKRRLI[2Thi]-NH2)	IC50	3.6
CC[C@H](C)[C@H](NC(=O)[C@H](CC(C)C)NC(=O)[C@H](CCCNC(=N)N)NC(=O)[C@H](CCCNC(=N)N)NC(=O)[C@H](CCCCN)NC(=O)[C@H](C)NC(=O)[C@@H](N)Cc1c[nH]cn1)C(=O)N[C@@H](CC1CCC1)C(N)=O [HAKRRLIX4] (H-HAKRRLI[Cba]-NH2)	IC50	25

IC50 value, target or system CDK2/Cyclin A2 (Homo sapiens, UniProt P20248), for CC[C@H](C)[C@H](NC(=O)[C@H](CC(C)C)NC(=O)[C@H](CCCNC(=N)N)NC(=O)[C@H](CCCNC(=N)N)NC(=O)[C@H](CCCCN)NC(=O)[C@H](C)NC(=O)[C@@H](N)Cc1c[nH]cn1)C(=O)N[C@@H](Cc1ccco1)C(N)=O [HAKRRLIX1] : 6.1

IC50 value, target or system CDK2/Cyclin A2 (Homo sapiens, UniProt P20248), for CC[C@H](C)[C@H](NC(=O)[C@H](CC(C)C)NC(=O)[C@H](CCCNC(=N)N)NC(=O)[C@H](CCCNC(=N)N)NC(=O)[C@H](CCCCN)NC(=O)[C@H](C)NC(=O)[C@@H](N)Cc1c[nH]cn1)C(=O)N[C@@H](Cc1ccsc1)C(N)=O [HAKRRLIX3] (H-HAKRRLI[3Thi]-NH2) : 25

IC50 value, target or system CDK2/Cyclin A2 (Homo sapiens, UniProt P20248), for CC[C@H](C)[C@H](NC(=O)[C@H](CC(C)C)NC(=O)[C@H](CCCNC(=N)N)NC(=O)[C@H](CCCNC(=N)N)NC(=O)[C@H](CCCCN)NC(=O)[C@H](C)NC(=O)[C@@H](N)Cc1c[nH]cn1)C(=O)N[C@@H](Cc1cccnc1)C(N)=O [HAKRRLIX7] (H-HAKRRLI[3Pal]-NH2) : 29

* * *

Target: CDK4/Cyclin D1 (Homo sapiens)
Sequence (P24385 whole entry): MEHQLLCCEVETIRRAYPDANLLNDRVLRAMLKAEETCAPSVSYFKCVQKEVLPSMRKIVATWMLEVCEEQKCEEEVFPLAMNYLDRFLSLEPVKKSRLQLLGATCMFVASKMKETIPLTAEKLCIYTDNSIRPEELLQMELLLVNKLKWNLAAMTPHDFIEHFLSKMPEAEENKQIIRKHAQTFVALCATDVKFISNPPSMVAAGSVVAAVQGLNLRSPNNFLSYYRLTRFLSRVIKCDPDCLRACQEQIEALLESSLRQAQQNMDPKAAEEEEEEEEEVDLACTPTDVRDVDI
Sequence (P11802 whole entry partner): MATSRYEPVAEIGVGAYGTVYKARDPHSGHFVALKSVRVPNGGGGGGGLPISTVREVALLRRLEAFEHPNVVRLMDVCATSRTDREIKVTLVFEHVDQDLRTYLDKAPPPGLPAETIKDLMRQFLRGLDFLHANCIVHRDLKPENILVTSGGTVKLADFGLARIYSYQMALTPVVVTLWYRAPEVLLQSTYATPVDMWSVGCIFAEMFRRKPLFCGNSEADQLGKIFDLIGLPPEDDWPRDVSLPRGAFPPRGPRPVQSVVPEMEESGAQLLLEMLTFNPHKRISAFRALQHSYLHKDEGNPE
Assay: Fluorescence polarization (FP) competitive binding assay
Settings: Table 15; read-out: CDK2/Cyclin D1 IC50
result-type: IC50

molecule	tested-on	IC50
Cc1nc(C(=O)NC(CCCNC(=N)N)C(=O)NC(CC(C)C)C(=O)NCCCc2ccccc2)nn1-c1cc(Cl)cc(Cl)c1 (stereo not drawn)	CDK4/Cyclin D1 (Homo sapiens)	> 180 µM
CCN(CCCc1ccccc1)C(=O)C(CC(C)C)NC(=O)[C@H](CCCNC(=N)N)NC(=O)c1nc(C)n(-c2cc(Cl)cc(Cl)c2)n1 (stereo partly drawn)	CDK4/Cyclin D1 (Homo sapiens)	> 180 µM

Then there is this molecule:
Value of IC50 reported for the molecule CCN(Cc1ccccc1)C(=O)CC(CC(C)C)NC(=O)[C@H](CCCNC(=N)N)NC(=O)c1nc(C)n(-c2cc(Cl)cc(Cl)c2)n1 (stereo partly drawn) is > 180 µM

* * *

Target: CDK4/Cyclin D1 (Homo sapiens)
Experiment: Fluorescence polarization (FP) competitive binding assay
Where a SMILES comes first, the peptide text is derived from it. The star is where a group is joined. Bz = O=C(c1ccccc1)*
result-type: IC50

Value of IC50 reported for the compound CC[C@H](C)[C@H](NC(=O)[C@H](CC(C)C)NC(=O)[C@H](CCCNC(=N)N)NC(=O)c1ccccc1)C(=O)N[C@@H](Cc1ccccc1)C(N)=O [compound 5857] (Bz-RLIF-NH2) is 100 to 180 µM

* * *

Biological target: CDK2/Cyclin A2 (Homo sapiens)
Assay: In vitro kinase assay, 32P filter capture with GST-Rb substrate
Type: biochemical
result-type: pIC50
# reply with the number alone; pIC50 is -log10 of concentration in mol/L

Value of pIC50 reported for the substance `H-HAKTRLIF-NH2` is 4.30

* * *

Target: CDK2/cyclin A (Homo sapiens)
Experiment: Fluorescence polarization (FP) competitive binding assay
Settings: competitive binding (FP) assay; read-out: CDK2/Cyclin A IC50
Where a SMILES comes first, the peptide text is derived from it. The star is where a group is joined. X5 = Cc1nc(C(=O)*)nn1-c1cc(Cl)cc(Cl)c1; X1 = Cc1nc(C(=O)*)nn1-c1ccc(Cl)cc1
result-type: IC50

Below: 3 molecules and their reported IC50.
molecule	IC50
Cc1nc(C(=O)NC(CCCCNC(=N)N)C(=O)NC(CC(C)C)c2ccccc2OCC(C)C)nn1-c1cc(Cl)cc(Cl)c1 (stereo not drawn) [compound 5978]	> 180 µM
CC[C@H](C)[C@H](NC(=O)[C@H](CC(C)C)NC(=O)[C@H](CCCNC(=N)N)NC(=O)c1nc(C)n(-c2cc(Cl)cc(Cl)c2)n1)C(=O)N[C@@H](Cc1ccccc1)C(=O)O [SCCP 5773] (X5-RLIF-OH)	12 µM
COc1ccccc1CC(CC(C)C)NC(=O)C(CCCCNC(=N)N)NC(=O)c1nc(C)n(-c2cc(Cl)cc(Cl)c2)n1 (single isomer, unassigned) [compound 5981]	> 180 µM

Value of IC50 reported for the molecule COc1ccccc1C(CC(C)C)NC(=O)C(CCCCNC(=N)N)NC(=O)c1nc(C)n(-c2cc(Cl)cc(Cl)c2)n1 (stereo not drawn) [compound 5985] is > 180 µM

Value of IC50 reported for the molecule CCN(CCc1ccccc1)C(=O)CC(CC(C)C)NC(=O)[C@H](CCCNC(=N)N)NC(=O)c1nc(C)n(-c2cc(Cl)cc(Cl)c2)n1 (stereo partly drawn) [SCCP 6003] is 85.6 µM

Value of IC50 reported for the molecule Cc1nc(C(=O)N[C@@H](CCCNC(=N)N)C(=O)NC(CC(=O)NCc2ccccc2)CC(C)C)nn1-c1cc(Cl)cc(Cl)c1 (stereo partly drawn) [compound 6000] is > 180 µM

Value of IC50 reported for the molecule Cc1nc(C(=O)NC(CCCNC(=N)N)C(=O)NC(CC(C)C)C(=O)NCCCc2ccccc2)nn1-c1cc(Cl)cc(Cl)c1 (stereo not drawn) [compound 6004] is 57.7 µM

Value of IC50 reported for the molecule COc1ccccc1CC(CC(C)C)NC(=O)C(CCCCNC(=N)N)NC(=O)c1nc(C)n(-c2cc(Cl)cc(Cl)c2)n1 (stereo not drawn) [compound 5982] is > 180 µM

Value of IC50 reported for the molecule CCOc1ccccc1C(CC(C)C)NC(=O)C(CCCCNC(=N)N)NC(=O)c1nc(C)n(-c2cc(Cl)cc(Cl)c2)n1 (stereo not drawn) [compound 5984] is > 180 µM

Value of IC50 reported for the molecule CC[C@H](C)[C@H](NC(=O)[C@H](CC(C)C)NC(=O)[C@H](CCCNC(=N)N)NC(=O)c1nc(C)n(-c2ccc(Cl)cc2)n1)C(=O)N[C@@H](Cc1ccccc1)C(=O)O [SCCP 5774] (X1-RLIF-OH) is 25 µM

Value of IC50 reported for the molecule Cc1nc(C(=O)N[C@@H](CCCNC(=N)N)C(=O)NC(CC(=O)NCCc2ccccc2)CC(C)C)nn1-c1cc(Cl)cc(Cl)c1 (stereo partly drawn) [compound 6002] is > 180 µM

Value of IC50 reported for the molecule CCN(Cc1ccccc1)C(=O)CC(CC(C)C)NC(=O)[C@H](CCCNC(=N)N)NC(=O)c1nc(C)n(-c2cc(Cl)cc(Cl)c2)n1 (stereo partly drawn) [compound 6001] is > 180 µM

Value of IC50 reported for the molecule CCCOc1ccc(C)cc1C(CC(C)C)NC(=O)C(CCCCNC(=N)N)NC(=O)c1nc(C)n(-c2cc(Cl)cc(Cl)c2)n1 (stereo not drawn) [compound 5980] is > 180 µM

Value of IC50 reported for the molecule Cc1nc(C(=O)N[C@@H](CCCNC(=N)N)C(=O)NC(CC(C)C)C(=O)NCCCc2ccccc2)nn1-c1cc(Cl)cc(Cl)c1 (stereo partly drawn) [SCCP 6004] is 57.7 µM

Value of IC50 reported for the molecule CCN(CCCc1ccccc1)C(=O)C(CC(C)C)NC(=O)[C@H](CCCNC(=N)N)NC(=O)c1nc(C)n(-c2cc(Cl)cc(Cl)c2)n1 (stereo partly drawn) [compound 6005] is > 180 µM
